target_entity: recombinant human norepinephrine transporter (Homo sapiens)
Construct: expressed in transfected cells; host or cells: HEK293 or MDCK
Sequence (P23975 whole entry): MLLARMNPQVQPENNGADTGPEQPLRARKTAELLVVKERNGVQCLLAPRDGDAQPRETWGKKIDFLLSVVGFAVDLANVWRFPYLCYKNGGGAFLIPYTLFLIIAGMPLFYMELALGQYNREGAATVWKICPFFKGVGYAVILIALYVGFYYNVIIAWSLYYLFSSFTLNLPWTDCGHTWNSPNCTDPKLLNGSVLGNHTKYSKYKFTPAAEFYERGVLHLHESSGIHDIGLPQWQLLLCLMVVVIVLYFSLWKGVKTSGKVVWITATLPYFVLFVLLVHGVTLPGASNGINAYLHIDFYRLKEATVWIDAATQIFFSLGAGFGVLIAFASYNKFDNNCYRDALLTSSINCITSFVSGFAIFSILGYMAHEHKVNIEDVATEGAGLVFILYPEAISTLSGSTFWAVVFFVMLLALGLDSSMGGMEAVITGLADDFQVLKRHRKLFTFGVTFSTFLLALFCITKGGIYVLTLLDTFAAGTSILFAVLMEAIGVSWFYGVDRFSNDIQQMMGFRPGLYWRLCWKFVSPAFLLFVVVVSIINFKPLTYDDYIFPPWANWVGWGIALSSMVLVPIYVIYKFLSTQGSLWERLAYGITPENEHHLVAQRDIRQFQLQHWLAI
assay: Norepinephrine functional uptake assay for human reuptake transporter
Format: cell-based
measurement_context: [3H]norepinephrine uptake, HEK293 or MDCK cells expressing human norepinephrine transporter; read-out: Human IC50 (nM) NET
endpoint: IC50 (nM)
Please respond with the number in nM and leave the unit unwritten.

Exercise: Which IC50 value is on record for CN[C@H]1Cc2ccc(OC)cc2[C@@H](c2ccc(Cl)c(Cl)c2)C1 (stereo in doubt) [Compound 32a.3] ?
Solution: 1050

Exercise: And CN(C)[C@H]1CCc2ccccc2[C@H]1c1ccc(Cl)c(Cl)c1 (single isomer, unassigned) [Compound 37b] ?
Solution: 499

Exercise: What do you get for CN[C@H]1CCc2ccccc2[C@H]1c1ccc(Cl)c(Cl)c1 (single isomer, unassigned) [Compound 36b] ?
Solution: 7090

Exercise: Repeat for the following compound: COc1ccc2c(c1)C(c1ccc(Cl)c(Cl)c1)CC(N(C)C)C2 (single isomer, unassigned) [Compound 33a.3]
Solution: 1170

Exercise: Input CN[C@@H]1Cc2cccc(OC)c2[C@H](c2ccc(Cl)c(Cl)c2)C1 (single isomer, unassigned) [Compound 32b.2]
Solution: 2320

Exercise: # iterate: CC1C[C@@H](c2ccc(Cl)c(Cl)c2)c2ccccc2/C1=N\O (single isomer, unassigned) [Compound 58]
Solution: 2840

Exercise: Would you mind doing CN[C@H]1Cc2cc(OC)ccc2[C@@H](c2ccc(Cl)c(Cl)c2)C1 (single isomer, unassigned) [Compound 32c.4] as well?
Solution: 111

Exercise: Entry N[C@H]1Cc2ccccc2[C@H](c2ccc(Cl)c(Cl)c2)C1 [Compound 6a] please
Solution: 124

Exercise: Same read-out for CN(C)[C@H]1CCc2ccccc2[C@H]1c1ccc(Cl)c(Cl)c1 (single isomer, unassigned) [Compound 37d] ?
Solution: 1010

Exercise: Moving on to CN(C)C1CC(c2ccc(Cl)c(Cl)c2)c2ccccc2C1O (single isomer, unassigned) [Compound 23a]
Solution: 710

Exercise: Consider next the compound CC([C@@H]1Cc2ccccc2[C@H](c2ccc(Cl)c(Cl)c2)C1)N(C)C (single isomer, unassigned) [Compound 54] in the same way.
Solution: 1700

Exercise: Check COc1ccc2c(c1)C(c1ccc(Cl)c(Cl)c1)CC(N(C)C)C2 (single isomer, unassigned) [Compound 33a.2] too.
Solution: 2260

###

target_entity: recombinant human dopamine transporter (Homo sapiens)
Construct: expressed in transfected cells; host or cells: CHO-K1 or HEK293
Sequence (Q01959 whole entry): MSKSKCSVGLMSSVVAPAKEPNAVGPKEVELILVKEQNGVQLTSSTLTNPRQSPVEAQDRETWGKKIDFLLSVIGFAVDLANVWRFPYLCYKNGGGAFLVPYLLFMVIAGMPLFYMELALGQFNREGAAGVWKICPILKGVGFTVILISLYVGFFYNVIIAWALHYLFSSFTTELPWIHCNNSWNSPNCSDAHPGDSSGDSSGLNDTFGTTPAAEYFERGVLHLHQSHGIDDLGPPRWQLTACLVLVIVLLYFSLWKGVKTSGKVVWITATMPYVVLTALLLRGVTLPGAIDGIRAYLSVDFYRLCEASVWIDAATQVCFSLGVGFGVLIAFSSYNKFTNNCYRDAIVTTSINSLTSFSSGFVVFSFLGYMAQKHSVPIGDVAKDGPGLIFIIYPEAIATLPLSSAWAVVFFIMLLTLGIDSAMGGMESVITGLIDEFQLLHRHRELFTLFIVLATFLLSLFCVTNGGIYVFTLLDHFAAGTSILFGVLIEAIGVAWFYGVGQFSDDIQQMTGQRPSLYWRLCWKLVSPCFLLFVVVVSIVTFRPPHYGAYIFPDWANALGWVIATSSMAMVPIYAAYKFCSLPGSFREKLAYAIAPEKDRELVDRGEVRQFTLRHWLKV
assay: Dopamine functional uptake assay for human reuptake transporter
Format: cell-based
measurement_context: [3H]dopamine uptake, CHO-K1 or HEK293 cells expressing human dopamine transporter; read-out: Human IC50 (nM) DAT
Could you please report measured log10 of IC50 for the items listed next?
In our notation, the value equals log10 of IC50 in nM.

Exercise: Requested read-out log10 of IC50, target or system recombinant human dopamine transporter (Homo sapiens), entry COc1ccc2c(c1)C[C@H](N(C)C)C[C@@H]2c1ccc(Cl)c(Cl)c1 (single isomer, unassigned) [Compound 33c.3]
Solution: 1.92

Exercise: COc1ccc2c(c1)C[C@H](N(C)C)C[C@@H]2c1ccc(Cl)c(Cl)c1 (single isomer, unassigned) [Compound 33c.1] ?
Solution: 2.29

Exercise: Next: CN(C)C1CC(c2ccc(Cl)c(Cl)c2)c2ccccc2C1O (single isomer, unassigned) [Compound 23d]
Solution: 1.68

Exercise: Now give it for CNC[C@H]1Cc2ccccc2[C@H](c2ccc(Cl)c(Cl)c2)C1 (single isomer, unassigned) [Compound 15b] too.
Solution: 2.01

Exercise: Item: CN[C@H]1Cc2cc(OC)ccc2[C@@H](c2ccc(Cl)c(Cl)c2)C1 (single isomer, unassigned) [Compound 32c.4]
Solution: 1.89

Exercise: Similarly, COc1ccc2c(c1)C(c1ccc(Cl)c(Cl)c1)CC(N(C)C)C2 (single isomer, unassigned) [Compound 33a.4] ?
Solution: 3.15

Exercise: Check CC([C@@H]1Cc2ccccc2[C@H](c2ccc(Cl)c(Cl)c2)C1)N(C)C (single isomer, unassigned) [Compound 54] too.
Solution: 3.28

Exercise: How about CN[C@@H]1Cc2cccc(OC)c2[C@H](c2ccc(Cl)c(Cl)c2)C1 (single isomer, unassigned) [Compound 32b.1] ?
Solution: 1.92

Exercise: Also need CC1C[C@@H](c2ccc(Cl)c(Cl)c2)c2ccccc2/C1=N\O (single isomer, unassigned) [Compound 57] , thanks.
Solution: 3.00

Exercise: Do the same for CN[C@H]1Cc2ccc(OC)cc2[C@@H](c2ccc(Cl)c(Cl)c2)C1 (single isomer, unassigned) [Compound 32a.2] please
Solution: 2.62

Exercise: Cool, now CN[C@H]1Cc2cc(OC)ccc2[C@@H](c2ccc(Cl)c(Cl)c2)C1 (stereo in doubt) [Compound 32c.3]
Solution: 1.96

Exercise: Now the same for CN[C@H]1Cc2ccccc2[C@H](c2ccc(Cl)c(Cl)c2)C1 [Compound 7a]
Solution: 2.06

Exercise: Also CN(C)[C@H]1Cc2ccccc2[C@H](c2ccc(Cl)c(Cl)c2)C1 [Compound 8a] ?
Solution: 2.66

Exercise: Then CNC1c2ccccc2CCC1c1ccc(Cl)c(Cl)c1 (single isomer, unassigned) [Compound 40b] ?
Solution: 3.25

Exercise: Request: CC(C1=Cc2ccccc2[C@H](c2ccc(Cl)c(Cl)c2)C1)N(C)C (stereo partly shown)
Solution: 3.39

Exercise: Also need CC1C[C@@H](c2ccc(Cl)c(Cl)c2)c2ccccc2/C1=N\O (single isomer, unassigned) [Compound 58] , thanks.
Solution: 2.64

Exercise: Now this one: CN[C@H]1CCc2ccccc2[C@H]1c1ccc(Cl)c(Cl)c1 (single isomer, unassigned) [Compound 36a]
Solution: 2.71

Exercise: Okay, and CNC[C@H]1Cc2ccccc2[C@H](c2ccc(Cl)c(Cl)c2)C1 [Compound 15a] ?
Solution: 2.10

Exercise: Can you handle CC(N)[C@@H]1Cc2ccccc2[C@H](c2ccc(Cl)c(Cl)c2)C1 (single isomer, unassigned) [Compound 52] next?
Solution: 2.79

Exercise: Also need CN[C@H]1Cc2ccccc2[C@H](c2ccc(Cl)c(Cl)c2)C1 (single isomer, unassigned) [Compound 7c] , thanks.
Solution: 2.45

Exercise: Entry to check: COc1ccc2c(c1)C[C@H](N(C)C)C[C@@H]2c1ccc(Cl)c(Cl)c1 (single isomer, unassigned) [Compound 33c.2]
Solution: 1.83

Exercise: Same read-out for CN[C@H]1Cc2cc(OC)ccc2[C@@H](c2ccc(Cl)c(Cl)c2)C1 (single isomer, unassigned) [Compound 32c.2] ?
Solution: 2.04

Exercise: Next up: CN[C@H]1Cc2cc(OC)ccc2[C@@H](c2ccc(Cl)c(Cl)c2)C1 (single isomer, unassigned) [Compound 32c.1]
Solution: 1.26

Exercise: For CN[C@H]1Cc2ccccc2[C@H](c2ccc(Cl)c(Cl)c2)C1 (single isomer, unassigned) [Compound 7d] then?
Solution: 1.86

Exercise: Please give the result for CNC(C)C1=Cc2ccccc2[C@H](c2ccc(Cl)c(Cl)c2)C1 (single isomer, unassigned) too.
Solution: 3.06

Exercise: Subsequent entry: CN(C)C1CC(c2ccc(Cl)c(Cl)c2)c2ccccc2C1O (single isomer, unassigned) [Compound 23a]
Solution: 2.57

Exercise: Moving on to the next molecule: CC(N)C1=Cc2ccccc2[C@H](c2ccc(Cl)c(Cl)c2)C1 (single isomer, unassigned) [Compound 45]
Solution: 2.24

Exercise: And then CC(N)[C@@H]1Cc2ccccc2[C@H](c2ccc(Cl)c(Cl)c2)C1 (stereo partly shown) [Compound 51] , what is it?
Solution: 1.48
